- Subject of test: Concanavalin A (Con A) internal_change (UniProt P02866)
- Assay remarks: BLI
- Test conditions: after the 20-nt 5' primer: every T = mannose-clicked C8-alkyne-dU (4), every C = 5-formyl-dC (2); primer unmodified; binding buffer, salt, pH and temperature not given in the material (hemagglutination: 30 min preincubation at RT)
Measured endpoint: pKd
One number for each entry, as −log10 of the molar value.

Field request: pKd | item: GATCCCAGTCCGAAGTAATCGTTGCATCTGCACGACTGGTGAGCTTGAGTGGCAGAAGAACTTGTGCAAACGGCTATAGG [ConA-3-1]
8.24

* * *

- Subject of test: Concanavalin A (Con A) internal_change (UniProt P02866)
- Assay remarks: particle flow cytometry
- Test conditions: after the 20-nt 5' primer: every T = mannose-clicked C8-alkyne-dU (4); C natural; binding buffer, salt, pH and temperature not given in the material (hemagglutination: 30 min preincubation at RT)
Measured endpoint: Kd

Field request: Kd | item: GATCCCAGTCCGAAGTAATCGTTGCATCTGCACGACTGGTGAGCTTGAGTGGCAGAAGAACTTGTGCAAACGGCTATAGG [ConA-3-1m]
17 nM
